# System: Escherichia coli (E. coli) strain CFT073 ATCC 700928
# Type: cell-based
# experimentalSetup: ATCC 700928, 22 h
# Protocol: In vitro antimicrobial activity of each compound was determined by measuring minimal inhibitor concentrations (MICs) using the broth micro-dilution technique as approved by the Clinical and Laboratory Standards Institute (CLSI) (Methods for Dilution Antimicrobial Susceptibility Tests for Bacteria that Grow Aerobically; Approved Standard—Eighth Edition. CLSI document M07-A8. Wayne, Pa.: Clinical and Laboratroy Standards; 2009). […]
*1 amine or outer side, *2 acyl side, *3 side chain or, on linkers, in order; H or OH if unused. Where a SMILES comes first, the peptide text is derived from it. [ ]: non-standard residue; d: D form. The star is where a group is joined. X13 = C[C@H](CO[C@H](CC1CC2(CCC2)C1)[C@@H](C)C(=O)[*:2])N[*:1]; Gly(cHept) = N[C@H](C(=O)O)C1CCCCCC1; NMeNva = CCC[C@H](NC)C(=O)O; Dap = NC[C@H](N)C(=O)O; X20 = C1NCC1C*
Assign MIC to each entry below.
Answers are plain numbers, in µM.

compound	MIC, µM
CCCCCCC1OC(=O)CNC(=O)[C@H](CNC(=O)C2CC3(CNC3)C2)NC(=O)[C@H](CN)NC(=O)[C@H](C2CCCCC2)NC(=O)[C@H](CC(C)C)N(C)C(=O)[C@@H]1C (stereo in doubt)	4.4

Each compound below has a recorded value; state its MIC.
1. CCCCCC[C@H]1OC(=O)CNC(=O)[C@H]([C@H](C)O)NC(=O)[C@H](CN)NC(=O)[C@H](C2CCCCC2)NC(=O)[C@H](CC(C)C)N(C)C(=O)[C@@H]1Cc1ccc(-c2ccccc2)cc1
2. CCC[C@H]1C(=O)N[C@@H](C2CCCCCC2)C(=O)N[C@@H](CN)C(=O)N[C@@H](COCC2CNC2)C(=O)N[C@H](C)CO[C@H](CC2CC3(CCC3)C2)[C@@H](C)C(=O)N1C [Example 171] (cyclo([Dap]S(X20)[X13][NMeNva][Gly(cHept)]))
3. CCCCCCCCCC[C@H]1OC(=O)CNC(=O)[C@H](COCCO)NC(=O)[C@H](CO)NC(=O)[C@H]([C@@H](C)CC)NC(=O)[C@H](CC(C)C)N(C)C(=O)[C@@H]1C

Given back:
1: 8.7; 2: 6.3; 3: 50

###

# Test system: Escherichia coli (E. coli) strain CFT073 ATCC 700928
# Format: cell-based
# experimentalSetup: ATCC 700928, 22 h
*1 amine or outer side, *2 acyl side, *3 side chain or, on linkers, in order; H or OH if unused. Where a SMILES comes first, the peptide text is derived from it. [ ]: non-standard residue; d: D form. The star is where a group is joined. X13 = C[C@H](CO[C@H](CC1CC2(CCC2)C1)[C@@H](C)C(=O)[*:2])N[*:1]; X2 = CCCCCC[C@@H](OC[C@@H](C)N[*:1])[C@@H](C)C(=O)[*:2]; Gly(cHept) = N[C@H](C(=O)O)C1CCCCCC1; NMeL = CN[C@@H](CC(C)C)C(=O)O; Chg = N[C@H](C(=O)O)C1CCCCC1; NMeNva = CCC[C@H](NC)C(=O)O; Dap = NC[C@H](N)C(=O)O; Propyl(3-NH2) = NCCC*; X15 = OC[C@@H](O)C*; X4 = NCC(F)(F)C*; X10 = NCCCC*
So basically: is MIC under 6 µM? Then Yes. Not under? Then No.

compound	classAssignment
CCCCCCCCCC[C@H]1OC(=O)CNC(=O)[C@H]([C@H](C)O)NC(=O)[C@H](CN)NC(=O)[C@H]([C@H](C)CC)NC(=O)[C@H](CCC)N(C)C(=O)[C@@H]1C	Yes
CCCCCCCCCC[C@H]1OC(=O)[C@@H](CC)NC(=O)[C@H]([C@H](C)O)NC(=O)[C@H](CN)NC(=O)[C@H]([C@H](C)CC)NC(=O)[C@H](CC(C)C)N(C)C(=O)[C@@H]1C	No
CCCCCCCCCC[C@H]1OC(=O)CNC(=O)[C@H]([C@H](C)O)NC(=O)[C@H](CN)NC(=O)[C@H](CCCOC)NC(=O)[C@H](CC(C)C)N(C)C(=O)[C@@H]1C	No
CCC[C@H]1C(=O)N[C@@H](C2CCCCCC2)C(=O)N[C@@H](CN)C(=O)N[C@@H](COCCCN)C(=O)N[C@H](C)CO[C@H](CC2CC3(CCC3)C2)[C@@H](C)C(=O)N1C [Example 159] (cyclo([Dap]S(Propyl(3-NH2))[X13][NMeNva][Gly(cHept)]))	Yes
CCCCCC[C@H]1OC[C@@H](C)NC(=O)[C@H](COC[C@H](O)CO)NC(=O)[C@H](CN)NC(=O)[C@H](C2CCCCC2)NC(=O)[C@H](CC(C)C)N(C)C(=O)[C@@H]1C [Example 136] (cyclo([Chg][Dap]S(X15)[X2][NMeL]))	No
CCCCCC[C@H]1OC[C@@H](C)NC(=O)[C@H](COCC(F)(F)CN)NC(=O)[C@H](CN)NC(=O)[C@H](C2CCCCC2)NC(=O)[C@H](CC(C)C)N(C)C(=O)[C@@H]1C [Example 81] (cyclo([Chg][Dap]S(X4)[X2][NMeL]))	No
CCCCCC[C@H]1OC[C@@H](C)NC(=O)[C@H](COCCCCN)NC(=O)[C@H](CN)NC(=O)[C@H](C2CCCCCC2)NC(=O)[C@H](CCC)N(C)C(=O)[C@@H]1C [Example 152] (cyclo([Dap]S(X10)[X2][NMeNva][Gly(cHept)]))	No
CCCCCC[C@H]1OC[C@@H](C)NC(=O)[C@H](COCCCN)NC(=O)[C@H](CN)NC(=O)[C@H](C2CCCCC2)NC(=O)[C@H](CC(C)C)N(C)C(=O)[C@@H]1C [Example 131] (cyclo([Chg][Dap]S(Propyl(3-NH2))[X2][NMeL]))	No

Asked: Report whether reported MIC is lower than 6 µM (strictly) for CCCCCC[C@H]1OC[C@@H](C)NC(=O)[C@H](COCCCCN)NC(=O)[C@H](CN)NC(=O)[C@H](C2CCCCC2)NC(=O)[C@H](CC(C)C)N(C)C(=O)[C@@H]1C [Example 73] (cyclo([Chg][Dap]S(X10)[X2][NMeL]))
Given back: No

###

# Test system: Escherichia coli (E. coli) strain CFT073 ATCC 700928
# Format: cell-based
# experimentalSetup: ATCC 700928, 22 h
*1 amine or outer side, *2 acyl side, *3 side chain or, on linkers, in order; H or OH if unused. Where a SMILES comes first, the peptide text is derived from it. [ ]: non-standard residue; d: D form. The star is where a group is joined. X5 = CCCC[C@@H](OC[C@@H](C)N[*:1])[C@@H](CCCC)C(=O)[*:2]; X2 = CCCCCC[C@@H](OC[C@@H](C)N[*:1])[C@@H](C)C(=O)[*:2]; X14 = CCCCCC[C@@H](OCCN[*:1])[C@@H](C)C(=O)[*:2]; Cyclobutyl(trans-3-NH2) = N[C@H]1C[C@H](*)C1; Gly(cHept) = N[C@H](C(=O)O)C1CCCCCC1; aIle = CC[C@@H](C)[C@H](N)C(=O)O; aThr = C[C@H](O)[C@H](N)C(=O)O; NMeL = CN[C@@H](CC(C)C)C(=O)O; Chg = N[C@H](C(=O)O)C1CCCCC1; NMeNva = CCC[C@H](NC)C(=O)O; Dap = NC[C@H](N)C(=O)O
testReadout: MIC (µM)
Numbers only, in µM.

The cases that follow already have their MIC on record.
compound	MIC [µM]
CCCCCC[C@H]1OCCNC(=O)[C@H](CO)NC(=O)[C@H](CN)NC(=O)[C@H]([C@H](C)CC)NC(=O)[C@H](CC(C)C)N(C)C(=O)[C@@H]1C [Example 113] (cyclo([Dap]S[X14][NMeL][aIle]))	50
CCC[C@H]1C(=O)N[C@@H](C2CCCCCC2)C(=O)N[C@@H](CN)C(=O)N[C@@H]([C@H](C)O)C(=O)NCC(=O)O[C@H](CC2CC3CCC2CC3)[C@@H](C)C(=O)N1C (stereo partly drawn)	0.78
CCCCCC[C@H]1OC(=O)CNC(=O)[C@H]([C@H](C)O)NC(=O)[C@H](CN)NC(=O)[C@H](C2CCCCC2)NC(=O)[C@H](CC(C)C)N(C)C(=O)[C@@H]1CCc1ccc(-c2ccccc2)cc1	35
CCCCCC[C@H]1OC(=O)CNC(=O)[C@H](C2CCC2)NC(=O)[C@H](CN)NC(=O)[C@H](C2CCCCC2)NC(=O)[C@H](CC(C)C)N(C)C(=O)[C@@H]1C	3.1
CCCCCC[C@H]1OC[C@@H](C)NC(=O)[C@H](CO[C@H]2C[C@H](N)C2)NC(=O)[C@H](CN)NC(=O)[C@H](C2CCCCCC2)NC(=O)[C@H](CCC)N(C)C(=O)[C@@H]1C [Example 146] (cyclo([Dap]S(Cyclobutyl(trans-3-NH2))[X2][NMeNva][Gly(cHept)]))	6.3
CCCCCCC1OC(=O)CNC(=O)[C@H]([C@H](C)O)NC(=O)[C@H](CN)NC(=O)[C@H]([C@H](C)CC)NC(=O)[C@H](CC(C)C)N(C)C(=O)C1(F)F (stereo partly drawn)	6.3

Below are 5 compounds. Give each one its MIC.
1. CCCC[C@H]1OC[C@@H](C)NC(=O)[C@H]([C@H](C)O)NC(=O)[C@H](CN)NC(=O)[C@H](C2CCCCC2)NC(=O)[C@H](CCC)N(C)C(=O)[C@@H]1CCCC [Example 77] (cyclo([Chg][Dap][aThr][X5][NMeNva]))
2. CCCC(CCC)C[C@H]1OC(=O)CNC(=O)[C@H]([C@H](C)O)NC(=O)[C@H](CO)NC(=O)[C@H]([C@H](C)CC)NC(=O)[C@H](CC(C)C)N(C)C(=O)[C@@H]1C
3. CCCCCC[C@H]1OC(=O)CNC(=O)[C@H]([C@H](C)O)NC(=O)[C@H](CN)NC(=O)[C@H](C2CCCCC2)NC(=O)[C@H](CC(C)C)N(C)C(=O)[C@@H]1Cc1ccccc1C
4. CCCCCC[C@H]1OC(=O)CNC(=O)[C@H]([C@H](C)O)NC(=O)[C@H](CO)NC(=O)[C@H](C2CCCCC2)NC(=O)[C@H](CC(C)C)N(C)C(=O)[C@@H]1C
5. CCCCCC[C@H]1OC(=O)CNC(=O)[C@H]([C@H](C)O)NC(=O)[C@H](CN)NC(=O)[C@H](C2Cc3ccccc3C2)NC(=O)[C@H](CCC)N(C)C(=O)[C@@H]1C

Given back:
1. 4.4
2. 50
3. 3.1
4. 4.4
5. 8.8
